details: basic group
For each of the compounds below, state its pKa.
// return just the number, without any unit appended

Request: Item Cc1ncnc2c(O)cccc12 has what recorded pKa?
Result: 2.9

Request: Given Nc1ccc(Cl)cn1 , state its recorded pKa.
Result: 4.83

Request: Reported pKa, compound CCCCCCN(CCO)CC(O)CC (configuration not stated) : ____
Result: 9.1

Request: Name the recorded pKa for CCC(=O)OC(C)CN(C)C (configuration not stated) .
Result: 8.26

Request: Requested field: pKa. Item: CN1CCCCCC1
Result: 11

Request: Please give the measured pKa for this compound: O=C(O)c1cccc[nH+]1
Result: -0.84

Request: Requested read-out: pKa. Entry: [O-]c1cccnn1
Result: 10.5

Request: Given the compound Cc1ccccc1-n1nnnc1N , what is its reported pKa?
Result: 1.23

Request: Recorded pKa for CCN1CCCCC1C (configuration not stated) , please?
Result: 10.7

Request: Quick check: pKa of Cc1cnc2c(ccc3c(C)c(C)cnc32)c1C ?
Result: 6.31

Request: I'd like to know its pKa. The compound in question is CC(N)CCc1ccc(O)cc1 (configuration not stated)
Result: 9.14

Request: Param item = c1coc(-c2ccncc2)c1 ; retrieve measured pKa.
Result: 5.6

Request: Tell me the measured pKa of CN(C)c1nc2c(s1)CCCC2 , please.
Result: 6.16

Request: // returns reported pKa for input Oc1ccc2ncccc2c1
Result: 5.26

Request: I am curious: what pKa value has been reported for NNCCCc1ccccc1 ?
Result: 7.2

Request: Which pKa is reported for this compound? O=C(CCN1CCOCC1)C(c1ccccc1)c1ccccc1
Result: 6.39

Request: Quick one: pKa of CSC(=N)N ?
Result: 9.83
